- procedure.text: Half life in mouse liver microsomes at 10 uM by LC-MS/MS analysis
- Type: ADME, microsome
- stated.conditions: liver microsomes
Reported half-life at 10 µM by item:

Identify the reported half-life at 10 µM for the following entry. "[2H]C([2H])([2H])Oc1ccc2c(c1)C(=O)N1CCC[C@H]1c1c(C(=O)OCC)ncn1-2"
5.85 h

State its half-life at 10 µM for this molecule: "COc1ccc2c(c1)C(=O)N1CCC[C@H]1c1c(C(=O)O)ncn1-2"
1.22 h

Query half-life at 10 µM for "[2H]C([2H])([2H])Oc1ccc2c(c1)C(=O)N1CCC[C@H]1c1c(C(=O)N(C)C)ncn1-2"
24.7 h
